# test name: yeast display, Sf9 membrane polyspecificity reagent, FACS + sequencing; frameworks hold sequencing errors
experimental readout: polyreactivity (PSR sort gate)

QVQLVESGGRLVQAGGSLRLSCAACGGIIWYNTMGWYRQAPGKERELVAAISDSGGRTSYADSVKGRFTISRDNAKNTVYLQMNSLKPEDTAVYYCNVDYVVSRGFIYRVDYWGQGTQVTVSS	low polyreactivity
QVQLVESGGGLVQAGGSLRLSCAASGRIFYYNAMGWYRPAPGKERELVAAITGDGTTDYADSVKGRFTISRDNAKNTVYLQMNSLKPEDTAVYYCNAPFRYVPPEGSGPYDYWGQGTQVTVSS	low polyreactivity
QVQLVESGGGLVQAGGSLRLSCAASGSIFYRYAMGWYRQAPGKERELVAAIRWSGGSTYYADSVKGRFTISRDNAKNTVYLQMNSLKPEDTAVYYCATEVSSGGYWSWYGYWGQGTQVTVSS	low polyreactivity
QVQLVESGGGLVQAGGSLRLSCASSGRTVGYNAMGWSRQPPGKEREFVAAITWSGGRTYYADSVKGRFTISRDNAKNTVYLLMNSLKPEDTAVYYCAIDGYWDFDYWGQGTQVSVSS	low polyreactivity

Data provenance is the nanobody polyreactivity screen of Harvey et al. (2022).
